- Tested on: SW-620 colon
- run.description: NCI tumour cell line growth inhibition, 48 h
property: TGI (µM)

molecule	units.label	result.comparator	result.number
O=c1cc(-c2ccc(Oc3ccccc3)cc2)[nH]c2cc3c(cc12)OCO3	µM	>	100
Nc1nc(Nc2cccnc2)sc1C(=O)c1ccccc1F	µM	>	42.6
O=C(/C=C/c1ccc(Cl)c(Cl)c1)c1ccc2ccccc2c1	µM	>	100
CSc1nnc(SC)nn1	µM	=	35.5
COc1ccc(-c2[nH]c3ccc(OC)cc3c2/C=C(\C#N)S(=O)(=O)c2ccccc2)cc1	µM	>	100
CC(=O)[C@@H](C)C(=O)N1C(=O)OC[C@@]12[C@@H]1CC[C@@H](C1)C2(C)C	µM	>	100
C=C1C(=O)O[C@H]2[C@H]1CC/C(COC(=O)NCCCCNC(=O)OC/C1=C/CC[C@@]3(C)O[C@H]3[C@H]3OC(=O)C(=C)[C@@H]3CC1)=C\CC[C@@]1(C)O[C@@H]21	µM	=	2.04
COC(=O)c1cc2c(cc1CC(Cc1ccc3c(c1)CCCC3)C(=O)OC)CCCC2 (stereo not given)	µM	>	100
CCCCCCCCCCCC(=O)OCC(C[As](=O)(O)O)OC(=O)CCCCCCCCCCC (stereo not given)	µM	=	26.8
CCOC(=O)c1ccc(NCc2ccc3oc(=O)c(-c4ccccc4)nc3c2)cc1	µM	=	50.4

---

- System: TK-10 renal
- run.description: NCI tumour cell line growth inhibition, 48 h
GI50 values by entry
property: GI50

In [3]: df
Out[3]:
                                   molecule  property    result
0  COc1ccccc1CNCCCN1C(=O)c2ccc3c4c(ccc(c24)C1=O)C(=O)N(CCCNCCNCCCN)C3=O      GI50   6.65 µM
1  CCCC(CCC)NCC(O)c1cc(-c2ccc(C(F)(F)F)cc2)nc(C(F)(F)F)c1 (stereo not given)      GI50   1.98 µM
2                COc1ccc(C[N+](C)(C)N)cc1OC      GI50  > 100 µM
3  Cc1ccc(NC(=O)c2cccc(C(C)(C)C#N)c2)cc1Nc1ccc2ncn(C)c(=O)c2c1      GI50    2.9 µM
4  Cc1ccc(N=C/C=C(\Nc2ccc(C)cc2)c2ccc(Cl)cc2)cc1      GI50   12.3 µM

---

- Test system: OVCAR-5 ovarian
- run.description: NCI tumour cell line growth inhibition, 48 h
property: TGI

>>> print(df.to_string())
                                   molecule      test_system  property     result
0      CC1=CC(C)(C)N=C2SC(c3ccc(N)cc3)=NN12  OVCAR-5 ovarian       TGI   > 100 µM
1  COc1cc2c(cc1OCCCCC(=O)Nc1cc3c4ccccc4ccc3c3ccccc13)N=C[C@@H]1CCCN1C2=O  OVCAR-5 ovarian       TGI    52.8 µM
2  CCCCCCCCCCCCCCCC(=O)OCC(C[As](=O)(O)O)OC(=O)CCCCCCCCCCCCCCC (stereo not given)  OVCAR-5 ovarian       TGI   > 100 µM
3  COc1cc2c3c(n(CCCN)c(=O)c2cc1OC)-c1ccc(C#N)cc1C3=O  OVCAR-5 ovarian       TGI    33.2 µM
4         CN(C)CCCN=c1c2ccccc2n(O)c2ccccc12  OVCAR-5 ovarian       TGI   > 100 µM
5       COC(=O)C12CC3CC(CC(C(=O)O)(C3)C1)C2  OVCAR-5 ovarian       TGI   > 100 µM
6   O=c1cc(N2CCCC2)[nH]c(=O)n1-c1cccc(Cl)c1  OVCAR-5 ovarian       TGI   > 100 µM
7  CCCCC(CC)COC(=O)C[N+](C)(C)CCOC(c1ccccc1)c1ccccc1 (stereo not given)  OVCAR-5 ovarian       TGI    15.8 µM
8  CN1CCN(CCCNc2nc3ccc(Oc4ccc(NC(=O)Nc5cc(C(F)(F)F)ccc5F)cc4)cc3[nH]2)CC1  OVCAR-5 ovarian       TGI  > 20.7 µM
9          CN(Cc1ccccc1)C(=O)c1ccccc1C(=O)O  OVCAR-5 ovarian       TGI   > 100 µM

---

- Test system: HT29 colon
- run.description: NCI tumour cell line growth inhibition, 48 h
GI50 values by entry
property: GI50

In [3]: df
Out[3]:
                                    molecule       result
 0  COCC[C@H]1CCC/C=C/[C@@H]2C[C@H](O)C[C@H]2[C@H](O)/C=C/C(=O)O1      35.1 nM
 1  COc1ccc(-c2nc3ccccn3c2/C=C/C(=O)c2cc(OC)c(OC)c(OC)c2)cc1OC      3200 nM
 2                COc1ccc(C[N+](C)(C)N)cc1OC  > 100000 nM
 3  COc1cc2c(cc1OCCCCC(=O)Nc1cc3c4ccccc4ccc3c3ccccc13)N=C[C@@H]1CCCN1C2=O      5860 nM
 4  COc1ccccc1CNCCCN1C(=O)c2ccc3c4c(ccc(c24)C1=O)C(=O)N(CCCNCCNCCCN)C3=O      2070 nM
 5  COc1ccc2[nH]c3c4[nH]c5ccc(OC)cc5c4c4c(c3c2c1)C(=O)NC4=O   > 25000 nM
 6    O=C(Nc1n[nH]c2cc(-c3ccccc3)ccc12)C1CC1      2310 nM
 7  CCCC(CCC)NCC(O)c1cc(-c2ccc(C(F)(F)F)cc2)nc(C(F)(F)F)c1 (stereo unspecified)      1830 nM
 8     NC(=O)c1cc(Cl)ccc1NC(=O)/C=C/c1ccccc1      2220 nM
 9  CC/C=C\C[C@H](O)C/C=C1/C(=O)C=C[C@@H]1C/C=C\CCCC(=O)OC      1610 nM
10  CC(C)c1ccc(-c2cc(-c3cn[nH]c3-c3ccccn3)ccn2)cc1      6920 nM

---

TGI values by entry
- System: NCI-H23 lung
- run.description: NCI tumour cell line growth inhibition, 48 h
property: TGI (µM)

In [3]: df
Out[3]:
                        structure_as_smiles   test_system  property  result_comparator  result_number
0  CC(C)c1ccc(-c2cc(-c3cn[nH]c3-c3ccccn3)ccn2)cc1  NCI-H23 lung       TGI                  >             25
1  COc1ccccc1CNCCCN1C(=O)c2ccc3c4c(ccc(c24)C1=O)C(=O)N(CCCNCCNCCCN)C3=O  NCI-H23 lung       TGI                  =           5.59
2           Cc1[nH]c(=O)nc2[nH][nH]c(=O)c12  NCI-H23 lung       TGI                  >            100
3  O=C(c1ccco1)N(C(=S)OCCOc1ccccc1)c1ccccc1  NCI-H23 lung       TGI                  =           39.9
4  CC(=O)Oc1ccc2cc(-c3ccccc3OC(C)=O)c(=O)oc2c1  NCI-H23 lung       TGI                  >            100
5  COCC[C@H]1CCC/C=C/[C@@H]2C[C@H](O)C[C@H]2[C@H](O)/C=C/C(=O)O1  NCI-H23 lung       TGI                  =          0.858
6            [N-]=[N+]=C1C(=O)NN=C1c1ccccc1  NCI-H23 lung       TGI                  >            100
7    CCCc1c(O)nc(Nc2nc3ccccc3[nH]2)[nH]c1=O  NCI-H23 lung       TGI                  >            100
8  C=C(C)[C@@H]1CC[C@]2(CO)CC[C@]3(C)[C@H](CC[C@@H]4[C@@]5(C)C=C(C#N)C(=O)C(C)(C)[C@@H]5CC[C@]43C)[C@@H]12  NCI-H23 lung       TGI                  =           6.05
9  COc1ccc(C(=O)c2cc(C)c(OC)c(C)c2)c(OC)c1O  NCI-H23 lung       TGI                  >            100

---

- Tested on: HT29 colon
- run.description: NCI tumour cell line growth inhibition, 48 h
property: TGI (µM)

>>> df
                                   compound  result_comparator  result_number
0  COCC[C@H]1CCC/C=C/[C@@H]2C[C@H](O)C[C@H]2[C@H](O)/C=C/C(=O)O1                  =          0.227
1  CN1CCN(CCCNc2nc3ccc(Oc4ccc(NC(=O)Nc5cc(C(F)(F)F)ccc5F)cc4)cc3[nH]2)CC1                  =           7.93
2              O=C1c2ccsc2C(=O)c2sc(CO)cc21                  =          0.444
3  CCOC(=O)c1ccc(NCc2ccc3oc(=O)c(-c4ccccc4)nc3c2)cc1                  >            100
4   CCC(C)NC1=NCC(C)S1 (stereo unspecified)                  >            100
5  COc1ccc(-c2nc3ccccn3c2/C=C/C(=O)c2cc(OC)c(OC)c(OC)c2)cc1OC                  >            100
